# Tested on: CAKI-1 renal
# assay-text: NCI tumour cell line growth inhibition, 48 h
Quick reference for TGI among some compounds
measured-attribute: TGI

CCN(CC)c1ccc2cc(C(N)=S)c(=N)oc2c1	> 100 µM
CCn1c(SCC(=O)N/N=C/c2ccccc2)nc2ccccc2c1=O	22.4 µM
COc1ccc2nccc(SCC(=O)O)c2c1	> 100 µM
COc1ccc(/C(COc2ccc3c(=O)c(-c4ccccc4)coc3c2)=N\O)cc1	7.47 µM
CCN(Cc1ccccc1)c1ccc(CO)c(Cl)c1	21.4 µM
CCCC[C@H]1[C@@H](OCOc2ccccc2)COC(=O)N1[C@H](C)c1ccccc1	30.5 µM
CC1=C(C(=O)Nc2cc(=O)n(C)c(=O)n2C)C(c2cccc([N+](=O)[O-])c2)C(C(=O)Nc2cc(=O)n(C)c(=O)n2C)=C(C)N1	> 100 µM
CC(=C/C=C/C=C(C)\C=C\C=C(\C)C(=O)O)/C=C/C=C(/C)C(=O)O	> 100 µM
Cc1c2c(cc[n+]1Cc1ccccc1)c1ccc(OCc3ccccc3)cc1n2Cc1ccccc1	3.67 µM
CCC(C(=O)C(=O)C(CC)P1(=O)OC(C)(C)CN1C(C)(C)C)P1(=O)OC(C)(C)CN1C(C)(C)C (configuration not stated)	> 100 µM
COC(=O)c1ccc(NC(=O)O/N=C(\Cl)C(C)C)cc1	3.08 µM
O=C(CC(C(=O)c1cccs1)c1cccs1)c1ccsc1 (configuration not stated)	> 100 µM
Cc1cccc2c1C(=O)[C@](C)([C@]1(C)Nc3cccc(C)c3C1=O)N2	69.2 µM
CC12CCC(C(Nc3cc(C(F)(F)F)cc(C(F)(F)F)c3)C1=O)C2(C)C (configuration not stated)	> 100 µM
CC1=CC[C@H](C(C)C)C(C(O)[C@@H](C)O[Si](c2ccccc2)(c2ccccc2)C(C)(C)C)C1=O (some centres not stated)	36.2 µM
CC1(C)CC2=C(Sc3ccccc3N2)C(=O)C1C(=O)C(=O)Nc1cccc([N+](=O)[O-])c1 (configuration not stated)	> 100 µM
C/C(=N\n1c(Cc2ccccc2)n[nH]c1=O)c1ccccc1	> 100 µM
CCCCN1CN2C(=O)C(C(=O)OCC)C(=O)c3sc4nc(SC)nc1c4c32 (configuration not stated)	32.9 µM
COc1cc(S(=O)(=O)Nc2nc(-c3ccc(N4C(=O)/C(=C/C=C/c5ccccc5)N=C4c4ccccc4)cc3)cs2)ccc1Cl	> 100 µM
C=C1C(C2(C)C(OC(C)=O)CC(=O)OC(C)(COC(C)=O)C2CC(=O)OC)C(OC=O)C(OC(=O)C(O)C(C)CC)C2(C)C(c3ccoc3)CC(=O)C12O (configuration not stated)	11.7 µM
COc1ccc2c3c([nH]c2c1[N+](=O)[O-])C(C)N(Cc1ccc([N+](=O)[O-])cc1)CC3 (configuration not stated)	32.5 µM
Nc1c2ccccc2nc2ccc3c(=O)cc(-c4ccccc4)oc3c12	2.63 µM
CC1=C[C@]2(O)C(=O)[C@H](C)C[C@H]3[C@@H](CC[C@@](C)(O)/C=C\2C1=O)C3(C)C	55.4 µM
COc1ccc(C(=O)C(C(=O)CC(=O)Nc2cccc(C(F)(F)F)c2)c2ccc(OC)cc2)cc1 (configuration not stated)	> 100 µM
Nc1nc(Cl)c(/C=N\O)c(NCC2(CO)CCC2)n1	> 100 µM
O=C1[C@H]2ON(c3ccccc3)C(c3ccccc3)[C@H]2C(=O)N1c1ccc(Cc2ccc(N3C(=O)[C@@H]4ON(c5ccccc5)C(c5ccccc5)[C@@H]4C3=O)cc2)cc1 (some centres not stated)	> 100 µM
Cc1ccccc1NC(=O)c1c(C)oc2c1C(=O)c1ccccc1C2=O	> 100 µM

---

Quick reference for TGI among some compounds
# Test system: HOP-92 NSCLC
# assay-text: NCI tumour cell line growth inhibition, 48 h
measured-attribute: TGI

CCCCCCc1ccc(C(=O)NO)cc1	> 100 µM
NC(N)=NS(=O)(=O)c1ccc(NNc2c3ccccc3nc3c(C(=O)Nc4ccc(S(=O)(=O)N=C(N)N)cc4)cccc23)cc1	> 100 µM
COc1c(OC(C)C)c(OC(C)C)c2oc(=O)n3c2c1C(c1ccccc1-n1c(C)ccc1C)C=C3 (stereo not given)	> 100 µM
Cc1ccc2c(-c3ccnc(Nc4ccccc4)n3)c(-c3ccc(F)cc3)nn2n1	> 25 µM
c1ccc(N=C(Nc2ccccc2)N2CCCC2)cc1	> 100 µM
Cc1cc(=O)oc2c(C)c(O)ccc12	> 100 µM
CCCSc1ccc2[nH]c(/N=C/c3ccccc3)cc2c1	76.9 µM
COc1cc(-c2ccc(-c3ccc(C(=N)N)nc3)s2)cc(OC)c1OC	8.37 µM
CCOC(=O)N1c2c(ccn2C)-c2ccn(C)c2N1C(=O)OCC	63.7 µM
CC1(C)CC2=C(Sc3ccccc3N2)C(=O)C1C(=O)C(=O)Nc1cccc([N+](=O)[O-])c1 (stereo not given)	> 100 µM

---

# Test system: LOX IMVI melanoma
# assay-text: NCI tumour cell line growth inhibition, 48 h; in the data active = GI50 below about 0.43 µM; inactive = the rest
Possible outcomes: active, inactive

COc1cccc(/C=C/[N+](=O)[O-])c1	inactive
COc1ccc(-c2oc(=O)ccc2-c2cc(OC)c(OC)c(OC)c2)cc1O	inactive
COc1ccc(-c2cc(-c3ccc(Cl)cc3)nc(SCCCC(=O)NO)n2)cc1	active
Cc1ccc2c(-c3ccnc(Nc4ccccc4)n3)c(-c3ccc(F)cc3)nn2n1	inactive
COc1cc(-c2ccc(-c3ccc(C(=N)N)nc3)s2)cc(OC)c1OC	inactive
C=C(C)[C@@H]1CC[C@]2(C(=O)O)CC[C@]3(C)[C@H](CC[C@@H]4[C@@]5(C)CCC(NC(=O)c6cccc(OC(C)=O)c6OC(C)=O)C(C)(C)[C@@H]5CC[C@]43C)[C@@H]12 (stereo partly drawn)	inactive
COc1ccc(/C(COc2ccc3c(=O)c(-c4ccccc4)coc3c2)=N\O)cc1	inactive
c1cc(N2CCCN(c3ccc(C4=NCCCN4)cc3)CC2)ccc1C1=NCCCN1	inactive

---

# System: SF-268 CNS
# assay-text: NCI tumour cell line growth inhibition, 48 h
measured-attribute: TGI

Cc1cc(C)nc(NS(=O)(=O)c2ccc(NNc3c4ccccc4nc4c(C(=O)Nc5ccc(S(N)(=O)=O)cc5)cccc34)cc2)n1	> 100 µM
CC(=O)OC[C@]1(C)CCCC2(C)C1CCC1C=C(C)[C@H]3CCC12C3 (stereo not given in full)	> 100 µM
COc1cccc2c1CCc1cc3c(N)nc(N)nc3nc1-2	42.4 µM
CC(C)OP(=O)(OC(C)C)c1nc(-c2ccccc2)n(-c2ccc([N+](=O)[O-])cc2)n1	> 100 µM
CC(=O)NC1=C(NC(C)(C)C)C(=O)c2ccccc2C1=O	55.6 µM
Oc1c(Cl)c(Cl)c(O)c(CCNc2ccc3ncccc3c2)c1Cl	18.8 µM
CC[C@H](Nc1c(O)c2c(c(O)c1Cl)C(=O)C=CC2=O)C(=O)OC	> 10 µM
NC(=O)c1cc2ccc(O)cc2o/c1=N/NC(=O)c1ccccc1	> 100 µM
Cc1c(S(=O)(=O)O)ccc(N=Nc2c(O)c(C(=O)O)cc3ccccc23)c1Cl	> 100 µM
C=C1C(=O)O[C@H]2[C@H]1CC/C(COC(=O)c1cc3ccccc3o1)=C\CC[C@@]1(C)O[C@@H]21	3.27 µM
O=C(O)Cc1cc(=O)[nH]c2c1/C(=N/O)CCC2	> 100 µM
O=C(c1ccccc1)c1c(-c2ccccc2)sc2nc3ccccc3nc12	> 100 µM
Cc1cccc(C)c1NC(=O)C(=O)CC(=O)/C=C/c1ccccc1	> 100 µM
O=c1[nH]/c(=C/c2ccc(OCc3ccccc3)cn2)c(=O)[nH]/c1=C/c1ccc(F)cc1	> 40.7 µM
COc1ccccc1C(O)(c1ccccc1)C(O)(c1ccccc1)c1ccccc1OC (stereo not given)	> 100 µM
COc1cccc(/C=C/[N+](=O)[O-])c1	21.4 µM
O=C1O/C(=C\c2ccccc2)N(c2ccccc2)C1=O	> 100 µM
O=C1[C@H]2ON(c3ccccc3)C(c3ccccc3)[C@H]2C(=O)N1c1ccc(Cc2ccc(N3C(=O)[C@@H]4ON(c5ccccc5)C(c5ccccc5)[C@@H]4C3=O)cc2)cc1 (stereo not given in full)	> 100 µM
O=C1NC(=O)C(c2ccccc2Cl)=C1Nc1cc(Cl)c(O)c(Cl)c1	> 25 µM
COc1cc(S(=O)(=O)Nc2nc(-c3ccc(N4C(=O)/C(=C/C=C/c5ccccc5)N=C4c4ccccc4)cc3)cs2)ccc1Cl	> 100 µM

---

# System: MDA-MB-435
measured-attribute: GI50

c1cc(N2CCCN(c3ccc(C4=NCCCN4)cc3)CC2)ccc1C1=NCCCN1	> 100 µM
COc1ccc(-c2cc(-c3cccn3C)c(C#N)c(=O)[nH]2)cc1OC	> 100 µM
C[C@]12CC[C@@H]3c4cc(-c5ccc(F)cc5)c(O)cc4CC[C@H]3[C@@H]1CC[C@@H]2O	11.8 µM
CS(=O)(=O)CCNCc1ccc(-c2ccc3ncnc(Nc4ccc(OCc5ccccc5)c(Br)c4)c3c2)o1	6.09 µM
COc1ccc(/C(COc2ccc3c(=O)c(-c4ccccc4)coc3c2)=N\O)cc1	2.17 µM
O=C(O)c1ccc(Oc2nccc(-c3c(-c4ccc(F)cc4)ncn3C3CCNCC3)n2)cc1	> 25 µM
CCC(=O)Nc1ccccc1C#C/C=C\C#Cc1ccccc1SC	1.92 µM
CCN(Cc1ccccc1)c1ccc(CO)c(Cl)c1	21.4 µM
CCCN(CCC)c1ccc(/C=C/c2ccc3cc(OCC)ccc3n2)cc1	> 100 µM
O=S(=O)(NCCCNc1nccc(-c2c(-c3ccc(F)c(O)c3)nc3sccn23)n1)c1ccc(F)cc1	0.636 µM

Cited source for all entries: PubChem BioAssay (NCI)
